Entries and their MCHC values follow.
# Species: Rattus norvegicus
# PROTOCOL_TEXT: Open TG-GATES - Regimen: Daily Repeat
# Assay type: toxicity, organism-based, Sprague-Dawley
# Set-up: regimen Daily Repeat, gender Male, age 6 weeks
# MEASUREMENT_CONDITIONS: in vivo, po, 0 mg/kg, 72 h, tissue Blood, route gavage, dose level Control, time 3 day
Quick note: give the figure in %, leave out the unit.

O=C1NC(=O)C(c2ccccc2)(c2ccccc2)N1 ... 34.1
COc1ccc(Cl)cc1C(=O)NCCc1ccc(S(=O)(=O)NC(=O)NC2CCCCC2)cc1 [GLYBURIDE] ... 33.2

Which MCHC is reported for this compound? O=C1CN(/N=C/c2ccc(-c3ccc([N+](=O)[O-])cc3)o2)C(O)=N1
33.6

Which MCHC is reported for this compound? CS(=O)(=O)Nc1ccc([N+](=O)[O-])cc1Oc1ccccc1 [NIMESULIDE]
34

Which MCHC is reported for this compound? Cc1cnc(NC(=O)C2=C(O)c3ccccc3S(=O)(=O)N2C)s1
34.2

Which MCHC is reported for this compound? Cc1cccc(Nc2cc(Cl)nc(SCC(=O)O)n2)c1C
34.4

Which MCHC is reported for this compound? Cn1c(=O)c2c(ncn2C)n(C)c1=O
33.1

Which MCHC is reported for this compound? COc1ccc(O)c(C(C)(C)C)c1.COc1ccc(O)cc1C(C)(C)C [BUTYLATED HYDROXYANISOLE]
34

Which MCHC is reported for this compound? C=CCO
33.8

Which MCHC is reported for this compound? O=P1(N(CCCl)CCCl)NCCCO1 (stereo unspecified) [CYCLOPHOSPHAMIDE ANHYDROUS]
33.2

Which MCHC is reported for this compound? Cn1cnc([N+](=O)[O-])c1Sc1ncnc2nc[nH]c12
33.8

---

# Species: Rattus norvegicus
# PROTOCOL_TEXT: Open TG-GATES - Regimen: Daily Repeat
# Type: toxicity, organism-based, Sprague-Dawley
# Set-up: regimen Daily Repeat, gender Male, age 6 weeks
# MEASUREMENT_CONDITIONS: in vivo, po, 0 mg/kg, […], tissue Plasma, route gavage, dose level Control, time 7 day
REPORTED_METRIC: GLC

CS(=O)(=O)Nc1ccc([N+](=O)[O-])cc1Oc1ccccc1 [NIMESULIDE] ... 197.4 mg/dL
Cc1cccc(Nc2cc(Cl)nc(SCC(=O)O)n2)c1C [PIRINIXIC ACID] ... 205.6 mg/dL
COc1ccc(Cl)cc1C(=O)NCCc1ccc(S(=O)(=O)NC(=O)NC2CCCCC2)cc1 [GLYBURIDE] ... 217 mg/dL
Cc1cnc(NC(=O)C2=C(O)c3ccccc3S(=O)(=O)N2C)s1 [MELOXICAM] ... 214.8 mg/dL

Continue with the molecule presented below.
Which GLC is reported for this molecule? O=C1CN(/N=C/c2ccc(-c3ccc([N+](=O)[O-])cc3)o2)C(O)=N1 [DANTROLENE]
204 mg/dL

---

# Species: Rattus norvegicus
# PROTOCOL_TEXT: Open TG-GATES - Regimen: Daily Repeat
# Format: toxicity, organism-based, Sprague-Dawley
# Design: regimen Daily Repeat, gender Male, age 6 weeks
# MEASUREMENT_CONDITIONS: in vivo, po, 0 mg/kg, […], tissue Blood, route gavage, dose level Control, time 14 day
REPORTED_METRIC: Lym

O=C1CN(/N=C/c2ccc(-c3ccc([N+](=O)[O-])cc3)o2)C(O)=N1 ... 82.6%
CS(=O)(=O)Nc1ccc([N+](=O)[O-])cc1Oc1ccccc1 [NIMESULIDE] ... 79%
Cn1c(=O)c2c(ncn2C)n(C)c1=O ... 84.2%
O=P1(N(CCCl)CCCl)NCCCO1 (stereo unspecified) [CYCLOPHOSPHAMIDE ANHYDROUS] ... 81.4%

Which Lym is reported for this compound? COc1ccc(Cl)cc1C(=O)NCCc1ccc(S(=O)(=O)NC(=O)NC2CCCCC2)cc1 [GLYBURIDE]
79.8%

Which Lym is reported for this compound? Cc1cccc(Nc2cc(Cl)nc(SCC(=O)O)n2)c1C
77.6%
